Cited source: ChEMBL document CHEMBL2021799

Experiment: Aqueous solubility of the compound
Settings: buffer
Metric: log1/S

Consider the worked cases shown below.
COC(=O)c1ccc2c(c1)nc(C(F)(F)F)n2C :: 5.96
Cn1c(S)nc2cc(Cl)ccc21 :: 4.71
CNC(=O)c1ccc2[nH]c(C(F)(F)F)nc2c1 :: 3.6
CSc1nc2cc(Cl)ccc2n1C :: 7.09
CSc1nc2ccccc2n1C :: 5.19
COC(=O)Nc1nc2ccc(Sc3ccccc3)cc2[nH]1 [FENBENDAZOLE] :: 7.07
c1ccc2[nH]cnc2c1 [BENZIMIDAZOLE] :: 1.45
COC(=O)c1ccc2nc(C(F)(F)F)n(C)c2c1 :: 6.47
COC(=O)c1ccc2[nH]c(C(F)(F)F)nc2c1 :: 5.64
Cn1c(C(F)(F)F)nc2ccc(Cl)cc21 :: 6.85

(1) Cc1nc2cc(Cl)c(Cl)cc2n1C
(2) Cn1c(S)nc2ccccc21
Enquiry: Just tell me: smaller log1/S value, 1 or 2 ? # answer = label of selected item
Return: 2

----------
Assay: Aqueous solubility of the compound
Settings: aqueous medium, not specified further
Metric: solubility (µg/mL)

Consider the worked cases shown below.
c1ccc2[nH]cnc2c1 :: 7600
Cc1nc2ccccc2n1C :: 5790
COC(=O)c1ccc2nc(C(F)(F)F)n(C)c2c1 :: 0.0859

(1) Cn1c(C(F)(F)F)nc2ccc(C(=O)O)cc21
(2) CNC(=O)c1ccc2nc(C(F)(F)F)n(C)c2c1
(3) CCN(CC)C(=O)COC(=O)c1ccc2nc(C(F)(F)F)n(C)c2c1
(4) Cn1c(C(F)(F)F)nc2cc(C(=O)O)ccc21
(5) COC(=O)Nc1nc2ccc(Sc3ccccc3)cc2[nH]1
Enquiry: rank_up(items): orders items by reported solubility in ascending numerical order. State the ranking by listing the labels in the requested order.
Return: 5, 3, 4, 2, 1
(5: 0.025 µg/mL, 3: 0.0572 µg/mL, 4: 10.9 µg/mL, 2: 29.6 µg/mL, 1: 98.7 µg/mL)

(A) Cn1c(S)nc2ccccc21
(B) COC(=O)c1ccc2c(c1)nc(C(F)(F)F)n2C
Enquiry: Just tell me: smaller solubility value, A or B ? # answer = label of selected item
Return: B

----------
Test system: Caco-2
Assay: Influx ratio of permeability from basolateral to apical side over apical to basolateral side in human Caco2 cells at 100 uM up to 90 mins
Conditions: caco-2, 1.5 h
Metric: Ratio

Consider the worked cases shown below.
COC(=O)c1ccc2c(c1)nc(C(F)(F)F)n2C :: 1.11
Cn1c(N)nc2cc(Cl)ccc21 :: 0.54
CSc1nc2ccccc2n1C :: 0.74
CCN(CC)C(=O)COC(=O)c1ccc2c(c1)nc(C(F)(F)F)n2C :: 1.99
Cn1c(S)nc2ccccc21 :: 0.56
Cc1nc2cc(Cl)c(Cl)cc2n1C :: 0.71
CC(C)NCC(O)COc1cccc2ccccc12 (stereo not drawn) [PROPRANOLOL] :: 1.27
Cn1c(S)nc2cc(Cl)ccc21 :: 0.72

(1) Cc1nc2ccccc2n1C
(2) COC(=O)c1ccc2nc(C(F)(F)F)n(C)c2c1
Enquiry: Just tell me: smaller Ratio value, 1 or 2 ? # answer = label of selected item
Return: 1

(P) Cn1c(C(F)(F)F)nc2cc(C(=O)O)ccc21
(Q) Cn1c(S)nc2ccc(Cl)cc21
Enquiry: Could you please tell me which of these two has the higher Ratio: P or Q ? # answer = label of selected item
Return: P

(P) Cn1c(C(F)(F)F)nc2ccc(C(=O)O)cc21
(Q) CNC(=O)c1ccc2nc(C(F)(F)F)n(C)c2c1
(R) CSc1nc2cc(Cl)ccc2n1C
Enquiry: rank_up(items): orders items by reported Ratio in ascending numerical order. State the ranking by listing the labels in the requested order.
Return: R, P, Q
